Would you mind telling me the reported pIC50 of each entry?
Target: β5 subunit of the human immunoproteasome (IPS) (Homo sapiens, UniProt P28062)
Assay: β5 inhibition assay, human immunoproteasome (Suc-LLVY-AMC)
Conditions: IC50 class, Suc-LLVY-AMC substrate
pIC50: −log10 of the molar value.

Look up pIC50: Cc1ccc2cc1CNC(=O)[C@H](CCc1ccccc1)NC(=O)[C@@H](NC(=O)[C@@H](N)Cc1ccccc1)CC(=O)N1CCCC(CCO2)C1 (stereo partly shown)
> 7.00

Cc1ccc2cc1CNC(=O)[C@H](CCc1ccccc1)NC(=O)[C@@H](NC(=O)OCc1ccccc1)CC(=O)N1CC(C)CC(CCO2)C1 (stereo partly shown) , same question.
> 7.00

Cc1ccc2cc1CNC(=O)[C@H](CCc1ccccc1)NC(=O)[C@@H](NC(=O)CN1CCC1)CC(=O)N1CCCC(CCO2)C1 (stereo partly shown) , same question.
> 7.00

`CC(=O)N[C@H]1CCC(=O)N(C)CCCCOc2ccc(C)c(c2)CNC(=O)[C@H](CCc2ccccc2)NC1=O` , same question.
6.00 to 6.30

Cc1ccc2cc1CNC(=O)C(c1cnn(C)c1)NC(=O)[C@@H](NC(=O)C1CCCc3ccccc31)CC(=O)N1CCCC(CCO2)C1 (stereo partly shown) , same question.
> 7.00

CC(=O)N[C@H]1CC(=O)N2CCCC(CCOc3ccc(C)c(c3)CNC(=O)[C@H](C3Cc4ccccc4C3)NC1=O)C2 (stereo partly shown) , same question.
> 7.00

Cc1nc2cc(CCC(=O)N[C@H]3CC(=O)N4CCCC(CCOc5ccc(C)c(c5)CNC(=O)[C@H](CCc5ccccc5)NC3=O)C4)ccc2[nH]1 (stereo partly shown) , same question.
> 7.00

Cc1ccc2cc1CNC(=O)[C@H](CCc1ccccc1)NC(=O)[C@@H](NC(=O)C1CCN1)CC(=O)N1CCCC(CCO2)C1 (stereo partly shown) , same question.
> 7.00

CCC(C(=O)N[C@H]1CC(=O)N2CCCC(CCOc3ccc(C)c(c3)CNC(=O)[C@H](CCc3ccccc3)NC1=O)C2)c1ccc(OC)c(OC)c1 (stereo partly shown) , same question.
> 7.00

COc1ccc(CC(=O)N[C@H]2CC(=O)N3CCCC(CCOc4ccc(C)c(c4)CNC(=O)[C@H](CCc4ccccc4)NC2=O)C3)cc1OC (stereo partly shown) , same question.
> 7.00

CC(=O)N[C@H]1CCC(=O)N2CC3CC(Oc4ccc(C)c(c4)CNC(=O)[C@H](CCc4ccccc4)NC1=O)C3C2 (stereo partly shown) , same question.
6.00 to 6.30

Cc1ccc2cc1CNC(=O)[C@H](CCc1ccccc1)NC(=O)[C@@H](NC(=O)c1ccc3cc(N)ccc3c1)CC(=O)N1CCCC(CCO2)C1 (stereo partly shown) , same question.
> 7.00

COc1cccc(CC(=O)N[C@H]2CC(=O)N3CCCC(CCOc4ccc(C)c(c4)CNC(=O)C(c4cnn(C)c4)NC2=O)C3)c1 (stereo partly shown) , same question.
> 7.00

* * *

Test system: B-cells isolated from PBMC's
Experiment: Chymotrypsin-like ProteasomeGlo assay in B-cells isolated from PBMCs
Assay type: cell-based, human
Conditions: B-cells isolated from PBMC's; read-out: Pglo B-Cell
pIC50: −log10 of the molar value.
endpointName: pIC50

Look up pIC50: Cc1ccc2cc1CNC(=O)C(CCc1ccccc1)NC(=O)C(NC(=O)CCc1ccccc1)CC(=O)N1CCCC(CCO2)C1 (stereo not shown)
> 7.00

* * *

System: HT-29 cells
Test: CellTiter-Glo luminescent cell viability assay with HT-29 cells (72h incubation)
Type: cell-based, human
Settings: Homo sapiens, HT-29, HT29 cells, read-out: CTG HT29
pIC50: −log10 of the molar value.
endpointName: pIC50

Look up pIC50: Cc1ccc2cc1CNC(=O)C(CCc1ccccc1)NC(=O)[C@@H](NC(=O)OCc1ccccc1)CC(=O)N1CCCC(CCO2)C1 (stereo partly drawn)
> 7.00

Cc1ccc2cc1CNC(=O)[C@H](CCc1ccccc1)NC(=O)[C@@H](NC(=O)Cc1nnc(N)[nH]1)CC(=O)N1CCCC(CCO2)C1 (stereo partly drawn) , same question.
6.30 to 7.00

COc1ccc(CC(=O)N[C@H]2CC(=O)N3CCCC(CCOc4ccc(C)c(c4)CNC(=O)[C@H](CCc4ccccc4)NC2=O)C3)cc1 (stereo partly drawn) , same question.
> 7.00

CCOC(C(=O)N[C@H]1CC(=O)N2CCCC(CCOc3ccc(C)c(c3)CNC(=O)[C@H](CCc3ccccc3)NC1=O)C2)c1ccc(N)cc1 (stereo partly drawn) , same question.
> 7.00

CNCCOCC(=O)N[C@H]1CC(=O)N2CCCC(CCOc3ccc(C)c(c3)CNC(=O)[C@H](CCc3ccccc3)NC1=O)C2 (stereo partly drawn) , same question.
6.30 to 7.00

Cc1ccc2cc1CNC(=O)C(CCc1ccccc1)NC(=O)CCC(=O)N1CCCC(CCO2)C1 (stereo not drawn) , same question.
6.30 to 7.00

* * *

Would you mind telling me the reported IC50 of each entry?
Test system: hPMBC
Test: Chymotrypsin-like ProteasomeGlo assay in hPBMC
Type: cell-based
Conditions: Homo sapiens; read-out: Pglo hPBMC

Look up IC50: CC(=O)N[C@H]1CC(=O)N2CCCC(CCOc3ccc(C)c(c3)CNC(=O)C(c3coc(C)n3)NC1=O)C2 (stereo partly shown)
< 100 nM

Cc1ccc2cc1CNC(=O)[C@H](CCc1ccccc1)NC(=O)[C@@H](NC(=O)c1cc3cc(C(F)(F)F)ccc3n1C)CC(=O)N1CCCC(CCO2)C1 (stereo partly shown) , same question.
< 100 nM

CC(=O)N[C@H]1CC(=O)N2CCCC(CCOc3ccc(C)c(c3)CNC(=O)C(CCc3ccncc3)NC1=O)C2 (stereo partly shown) , same question.
< 100 nM

`Cc1ccc2cc1CNC(=O)[C@H](CCc1ccccc1)NC(=O)[C@@H](NC(=O)OCc1ccccc1)CCCCC(=O)N1CC(CCO2)C1` , same question.
< 100 nM

Cc1ccc2cc1CNC(=O)[C@H](CCc1ccccc1)NC(=O)[C@@H](NC(=O)CC1=NN(c3ccccc3)C(=O)C1)CC(=O)N1CCCC(CCO2)C1 (stereo partly shown) , same question.
100 to 500 nM

CC(=O)N[C@H]1CC(=O)N2CCCC(CCOc3ccc(C)c(c3)CNC(=O)C(c3cnn(-c4ccccc4)c3)NC1=O)C2 (stereo partly shown) , same question.
< 100 nM

Cc1ccc2cc1CNC(=O)[C@H](CCc1ccccc1)NC(=O)[C@@H](NC(=O)C1CCCc3ccccc31)CC(=O)N1CCCC(CCO2)C1 (stereo partly shown) , same question.
< 100 nM

COc1ccccc1CC(=O)N[C@H]1CC(=O)N2CCCC(CCOc3ccc(C)c(c3)CNC(=O)[C@H](CCc3ccccc3)NC1=O)C2 (stereo partly shown) , same question.
< 100 nM

CC(=O)N[C@H]1CC(=O)N2CCCC(CCOc3ccc(C)c(c3)CNC(=O)C(c3cc(C)n(C)n3)NC1=O)C2 (stereo partly shown) , same question.
< 100 nM

`CC(=O)N[C@H]1CC(=O)NCCCOc2ccc(C)c(c2)CNC(=O)[C@H](CCc2ccccc2)NC1=O` , same question.
> 5000 nM

CC(=O)N[C@H]1CCC(=O)N2CCCC(C2)Oc2ccc(C)c(c2)CNC(=O)[C@H](CCc2ccccc2)NC1=O (stereo partly shown) , same question.
500 to 1000 nM

Cc1ccc2cc1CNC(=O)[C@H](CCc1ccccc1)NC(=O)[C@@H](NC(=O)C1(C)COC1)CC(=O)N1CCCC(CCO2)C1 (stereo partly shown) , same question.
< 100 nM

Cc1ccc2cc1CNC(=O)C(CCc1ccncc1)NC(=O)[C@@H](NC(=O)OCc1ccccc1)CC(=O)N1CCCC(CCO2)C1 (stereo partly shown) , same question.
< 100 nM

Cc1ccc2cc1CNC(=O)[C@H](CCc1ccccc1)NC(=O)[C@@H](NC(=O)OCc1ccccc1)CC(=O)N1CC(CCO2)CC2CCCCC21 (stereo partly shown) , same question.
< 100 nM

CO[C@@H](C(=O)N[C@H]1CC(=O)N2CCCC(CCOc3ccc(C)c(c3)CNC(=O)C(c3cnn(C)c3)NC1=O)C2)c1ccccc1 (stereo partly shown) , same question.
< 100 nM

Cc1ccc2cc1CNC(=O)C(CCc1ccccc1)NC(=O)[C@@H](NC(=O)OCc1ccccc1)CC(=O)N1CCCC(CCO2)C1 (stereo partly shown) , same question.
100 to 500 nM

Cc1ccc2cc1CNC(=O)[C@H](CCc1ccccc1)NC(=O)[C@@H](NC(=O)OCc1ccccc1)CC(=O)N1CCCC(CCO2)C1 (stereo partly shown) , same question.
< 100 nM

`CC(=O)N[C@H]1CC(=O)N2CC(COc3ccc(C)c(c3)CNC(=O)[C@H](CCc3ccccc3)NC1=O)C2` , same question.
> 5000 nM

Cc1ccc2cc1CNC(=O)[C@H](CCc1ccccc1)NC(=O)[C@@H](NC(=O)Cc1ccccc1C)CC(=O)N1CCCC(CCO2)C1 (stereo partly shown) , same question.
< 100 nM

CC(=O)N[C@H]1CCC(=O)N2CCCC(CCOc3ccc(C)c(c3)CNC(=O)[C@H](CCc3ccccc3)NC1=O)C2 (stereo partly shown) , same question.
< 100 nM

Cc1ccc2cc1CNC(=O)[C@H](CCc1ccccc1)NC(=O)[C@@H](NC(=O)Cc1cnc(N)s1)CC(=O)N1CCCC(CCO2)C1 (stereo partly shown) , same question.
< 100 nM

Cc1ccc2cc1CNC(=O)[C@H](CCc1ccccc1)NC(=O)[C@@H](NC(=O)CC(C)(C)C)CC(=O)N1CCCC(CCO2)C1 (stereo partly shown) , same question.
100 to 500 nM

Cc1ccc2cc1CNC(=O)C(CCc1cnccn1)NC(=O)[C@@H](NC(=O)C1(c3ccc(N)cc3)CC1)CC(=O)N1CCCC(CCO2)C1 (stereo partly shown) , same question.
< 100 nM

Cc1ccc2cc1CNC(=O)C(CCc1ccncc1)NC(=O)[C@@H](NC(=O)Cc1nnc(N)s1)CC(=O)N1CCCC(CCO2)C1 (stereo partly shown) , same question.
< 100 nM

Cc1ccc2cc1CNC(=O)[C@@H](CCc1ccccc1)NC(=O)[C@H](NC(=O)C(C)(C)CS)CC(=O)N1CCCC(CCO2)C1 (stereo partly shown) , same question.
< 100 nM
